test system: OVCAR-5 ovarian; assay: NCI-60 one-dose screen, 48 h (100 = growth as untreated, 0 = no growth, -100 = all killed); details: 10 µM unless noted
This is part of a sample that, as a whole, favours compounds with a hit. Of some 83,000 tested, about 20% had one in any assay.
Can you tell me growth for the items I'm about to list?
Give bare numbers, in %.

Check out these entries, answers already filled in.
CCC(=O)Oc1ccc(/C(=C(/C)Cc2cccc(OC)c2)c2ccc(OCCN(C)C)cc2)cc1    99.1
N#Cc1c(-c2ccccc2)cc(-c2ccccc2)n(CC(=O)NO)c1=O    69.3
Cn1ncc2c(Sc3ccc(Cl)cc3)ncnc21    109
CC1CN(c2oc(-c3ccccc3)nc2C#N)CC(C)O1 (stereo unspecified)    102
C=C1CCC2C(C)(CO)C(O)CCC2(C)C1C/C=C1/C(=O)OCC1Oc1ccccc1C (stereo unspecified)    91.8

# context switch: different compound, same growth
# input What growth value was documented for this compound, CC12CCC3C4(C)COC(c5ccco5)OC4CCC3(C)C1CC(C1=CCOC1=O)O2 (stereo unspecified) ?
# output 99.8
